Numbers sourced from ChEMBL document CHEMBL4689842.

System: Fibroblast
test_description: Multiplex assay against human fibroblast
Format: toxicity, cell-based
test_parameters: 24 h, 1 µM, compound concentration 1 uM, replicate 1
Assign yes to entries whose Population Mitochondria Different-Phenotype (%) meets or exceeds 20%; assign no to the rest.

>  <compound>
C[C@@]1(C(=O)Nc2ccc(F)nc2)CCCN1c1nc(Nc2cc(C3CC3)n[nH]2)c2cccn2n1 [BMS-754807]

>  <tested_target>
Fibroblast

>  <assigned_category>
yes

$$$$
>  <compound>
C=CC(=O)Nc1ccc2ncnc(Nc3ccc(OCc4cccc(F)c4)c(Cl)c3)c2c1.Cc1ccc(S(=O)(=O)O)cc1

>  <tested_target>
Fibroblast

>  <assigned_category>
no

$$$$
>  <compound>
CN1CCC[C@@H]1CCO[C@](C)(c1ccccc1)c1ccc(Cl)cc1.O=C(O)/C=C/C(=O)O [CLEMASTINE FUMARATE]

>  <tested_target>
Fibroblast

>  <assigned_category>
no

$$$$
>  <compound>
O=C1NCN(c2ccccc2)C12CCN(CCCOc1ccc(F)cc1)CC2 [SPIRAMIDE]

>  <tested_target>
Fibroblast

>  <assigned_category>
no

$$$$
>  <compound>
Cc1nc(Nc2n[nH]c3c2CN(C(=O)N[C@H](CN(C)C)c2ccccc2)C3(C)C)c2sccc2n1 [PF-03758309]

>  <tested_target>
Fibroblast

>  <assigned_category>
no

$$$$
>  <compound>
Cc1cc(C)cc(-c2cnc3cc(Cl)c(-c4cccc(O)c4)cc3c2OCCCN)c1

>  <tested_target>
Fibroblast

>  <assigned_category>
no

$$$$
>  <compound>
CN(C)CC#Cc1ccc(OCCCc2sc(N3CCc4cccc(C(=O)Nc5nc6ccccc6s5)c4C3)nc2C(=O)O)c(F)c1 [A-1155463]

>  <tested_target>
Fibroblast

>  <assigned_category>
no

$$$$
>  <compound>
C=CC(=O)Nc1cc2c(Nc3ccc(F)c(Cl)c3)ncnc2cc1OCCCN1CCOCC1.Cl.Cl [CANERTINIB DIHYDROCHLORIDE]

>  <tested_target>
Fibroblast

>  <assigned_category>
yes

$$$$

* * *

Tested on: Fibroblast
test_description: Multiplex assay against human fibroblast
Format: toxicity, cell-based
test_parameters: 24 h, 1 µM, compound concentration 1 uM, replicate 1
Population Pyknosed Nuclei (%) for assorted compounds
measured_attribute: Population Pyknosed Nuclei (%)

>  <compound>
O=C1NCN(c2ccccc2)C12CCN(CCCOc1ccc(F)cc1)CC2 [SPIRAMIDE]

>  <observed_result>
22

$$$$
>  <compound>
C=CC(=O)Nc1cc2c(Nc3ccc(F)c(Cl)c3)ncnc2cc1OCCCN1CCOCC1.Cl.Cl [CANERTINIB DIHYDROCHLORIDE]

>  <observed_result>
35

$$$$
>  <compound>
CNc1nc(NCc2ccc(NS(C)(=O)=O)cc2Cl)cc(-c2ccccn2)n1

>  <observed_result>
20

$$$$

* * *

Growth Rate for assorted compounds
Tested on: U2OS
test_description: Incucyte cell viability with U2OS; note: filed as whole numbers so only -1 and 0 and 1 occur
Type: toxicity, cell-based
test_parameters: human, 12 h, 10 µM, compound concentration 10 uM, replicate number 1, timepoint 12 hours
measured_attribute: Growth Rate

>  <compound>
COc1ccc(CNC(=O)c2cc(-c3cncc(Cl)c3)cnc2-c2ccccn2)nc1OC

>  <observed_result>
1

$$$$
>  <compound>
COc1ccc(Oc2cc(NCCC(F)(F)F)c3ncc(-c4ccc(C(=O)NC5CC5)c(C)c4)n3n2)c(F)c1F

>  <observed_result>
0

$$$$
>  <compound>
O=C(NCCCC1CCCCC1)c1ccc(CNC(=O)c2cnn(-c3ccccc3)c2C(F)(F)F)cc1

>  <observed_result>
1

$$$$
>  <compound>
Cc1cccc([C@H](C)c2c[nH]cn2)c1C.Cl [DEXMEDETOMIDINE HYDROCHLORIDE]

>  <observed_result>
1

$$$$
